From: the supplement of paper PMC11061612

# System: COLO-668 (Small Cell Lung Carcinoma)
# experiment_description: combination Emax (second highest fraction inhibited in the dose matrix, 72 h); higher = more inhibition; extreme values may be limits of the assay
quantity: combination Emax
Keep the answer to the number alone.

GET /value?item= CC1(C)CCC(CN2CCN(c3ccc(C(=O)NS(=O)(=O)c4ccc(NCC5CCOCC5)c([N+](=O)[O-])c4)c(Oc4cnc5[nH]ccc5c4)c3)CC2)=C(c2ccc(Cl)cc2)C1 [Venetoclax] + CN(C)CCCOc1ccc(-c2ccc3ncc4c(c3c2)n(C2CCOCC2)c(=O)n4C)cn1 [AZD0156] (first compound max 1 µM, 7x7, partner max 1 µM) &field=combination Emax returns 0.452

GET /value?item= Cc1c2c(nn1C)CSCc1cc(n(C)n1)CSc1cc(c3ccccc3c1)OCCCc1c(C(=O)O)n(C)c3c-2c(Cl)ccc13 [AZD5991] + CS(=O)(=O)CCNCc1ccc(-c2ccc3ncnc(Nc4ccc(OCc5cccc(F)c5)c(Cl)c4)c3c2)o1 [Lapatinib] (first compound max 1 µM, 7x7, partner max 10 µM) &field=combination Emax returns 0.285

GET /value?item= CS(=O)(=O)CCNCc1ccc(-c2ccc3ncnc(Nc4ccc(OCc5cccc(F)c5)c(Cl)c4)c3c2)o1 [Lapatinib] + Cn1cnc2c(F)c(Nc3ccc(Br)cc3Cl)c(C(=O)NOCCO)cc21 [Selumetinib] (first compound max 10 µM, 7x7, partner max 10 µM) &field=combination Emax returns 0.493
